melting point: recorded values

CN1c2cccc3cccc(c23)N(CCCN2CC=C(c3ccccc3)CC2)S1(=O)=O    146 °C

Exam item: Specify melting point for "Cc1c(F)c(F)c(C(=O)NC(C(C)C)C(C)C)c(F)c1F" and stop.
Marked response: 184 to 187 °C

Exam item: Specify melting point for CCCCCC(CC(=O)OC)c1cc(C=O)c(OC)cc1OC (stereo not given) and stop.
Marked response: 110 to 112 °C

Exam item: Specify melting point for "COc1ccc(S(=O)(=O)N2CC3CCC(CC3)C2)c2ccccc12" and stop.
Marked response: 168 to 170 °C

Exam item: Specify melting point for COc1ccc2cccc(C(CNC(C)=O)COS(C)(=O)=O)c2c1 (stereo not given) and stop.
Marked response: 104 to 106 °C

Exam item: Specify melting point for "CCN1C(=O)C(=C2C=C(N3CCCC3)CC(C)(C)C2)C(=O)N(CC)C1=S" and stop.
Marked response: 226 to 227 °C

Exam item: Specify melting point for "COc1cc(CNc2nc(C)nc(C)c2Cl)ccc1OCc1ccccc1" and stop.
Marked response: 101 to 105 °C

Exam item: Specify melting point for "CCCCCCCCSc1ccc(-c2ncc(CCCCC)cn2)cc1" and stop.
Marked response: 43 °C

Exam item: Specify melting point for COc1cc2c(c(OC)c1OC)C(C#N)N(C(=O)c1ccccc1)C=C2 (stereo not given) and stop.
Marked response: 158 to 160 °C

Exam item: Specify melting point for COC1(c2cc(F)cc(S(=O)(=O)c3ccc4c(ccc(=O)n4C)c3)c2)CCOC(C)C1 (stereo not given) and stop.
Marked response: 85 to 88 °C

Exam item: Specify melting point for O=C1CCC(N2C(=O)c3cccc(OCc4ccc(Cl)c(Cl)c4)c3C2=O)C(=O)N1 (stereo not given) and stop.
Marked response: 245 to 247 °C

Exam item: Specify melting point for "CC(=O)Nc1cc(NC(C)=C2C(=O)OC(=O)C(C(C)=O)=C2O)cc([N+](=O)[O-])c1" and stop.
Marked response: > 270 °C

Exam item: Specify melting point for "CN(C)C(=O)c1c2ccc(Cl)cc2c(-c2ccccc2)n1C" and stop.
Marked response: 86 to 88 °C

Exam item: Specify melting point for CNC(=O)C(Cc1ccc(OC)cc1)NC(=O)C(C)(CC(C)C)c1ccc(OC)cc1SCc1ccc(OC)cc1 (stereo not given) and stop.
Marked response: 150 to 158 °C

Exam item: Specify melting point for CN(C)C1CCc2[nH]c3ccc(O)cc3c2C1 (stereo not given) and stop.
Marked response: 202 to 204 °C

Exam item: Specify melting point for "CN(C)C(=O)CCN1CCC(C(O)(c2ccc(F)cc2)c2ccc(F)cc2)CC1" and stop.
Marked response: 134 to 135 °C

Exam item: Specify melting point for "O=C(NCCc1c[nH]c2ccc([N+](=O)[O-])cc12)C(F)(F)F" and stop.
Marked response: 200 to 201 °C

----------
melting point: recorded values

COC1(C(=O)Nc2ccc(OC(C)C)c(Cl)c2)CC1    86 to 87 °C
COc1cc(C(=O)O)c(-c2cc3cc(O)ccc3[nH]2)cc1OC    160 °C
CC(Br)C(=O)c1cc([N+](=O)[O-])cs1 (stereo not given)    82.5 to 83 °C
CCCCCCCCCCCCCCC(CCC(=O)OCc1ccccc1)C(=O)O (stereo not given)    62 to 63 °C
Cc1cc(-n2cnnn2)cc(I)c1N    172 to 175 °C

Exam item: Specify melting point for "CNc1ncnc2c1ncn2CCCN1CCN(c2ccccc2)CC1" and stop.
Marked response: 162 to 163 °C
